- MEASURED ON: neurotensin receptors (frozen tissue sections from receptor-positive human tumors) (human) (UniProt P30989)
- Sequence (P30989 whole entry): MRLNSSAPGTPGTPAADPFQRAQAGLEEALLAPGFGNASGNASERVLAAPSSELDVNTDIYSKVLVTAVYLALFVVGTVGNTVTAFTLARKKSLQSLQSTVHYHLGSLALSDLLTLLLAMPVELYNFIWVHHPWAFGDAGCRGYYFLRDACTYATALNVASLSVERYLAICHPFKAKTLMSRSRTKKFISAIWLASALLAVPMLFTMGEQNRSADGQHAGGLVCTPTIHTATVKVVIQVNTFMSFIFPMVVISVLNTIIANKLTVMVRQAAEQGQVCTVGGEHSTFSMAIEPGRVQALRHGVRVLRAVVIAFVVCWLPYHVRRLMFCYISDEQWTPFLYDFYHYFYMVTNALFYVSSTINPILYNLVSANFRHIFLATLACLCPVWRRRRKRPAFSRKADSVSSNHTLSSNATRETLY
- TEST PROTOCOL: competitive binding vs radioiodinated native neurotensin, human tumor sections
pKd: −log10 of the molar value. *1 amine or outer side, *2 acyl side, *3 side chain or, on linkers, in order; H or OH if unused. [ ]: non-standard residue; d: D form. The star is where a group is joined. trans‑Cha(4-CH2NH2) = trans-(4-aminomethyl)cyclohexylalanine, O=C([C@H](C[C@H]1CC[C@H](CN[*:3])CC1)N[*:1])[*:2]; Gly(1-amidinopiperidin-4-yl) = N=C(N)N1CCC([C@H](N)C(=O)O)CC1; DTPA = O=C(O)CN(CCN(CC(=O)O)CC(=O)O)CCN(CC(=O)O)CC(=O)*; Dmt = Cc1cc(O)cc(C)c1C[C@H](N)C(=O)O; mTyr = N[C@@H](Cc1cccc(O)c1)C(=O)O; Ala(cPr) = N[C@@H](CC1CC1)C(=O)O; AzeCA = azetidinecarboxylic acid; Tle = CC(C)(C)[C@H](N)C(=O)O; PipGly = piperidinylglycine
ASSAY ENDPOINT: pKd

BINDER	pKd
{DTPA}-[dK][AzeCA][Gly(1-amidinopiperidin-4-yl)]RPY[Tle]L-OH [DTPA-DLys-AzeCA-Gly(PipAm)-Arg-Pro-Tyr-tBuGly-Leu-OH]	7.62
{DTPA}-[dK]P[Gly(1-amidinopiperidin-4-yl)]RPY[Tle][Ala(cPr)]-OH (SMILES CC(C)(C)[C@H](NC(=O)[C@H](Cc1ccc(O)cc1)NC(=O)[C@@H]1CCCN1C(=O)[C@H](CCCNC(=N)N)NC(=O)[C@@H](NC(=O)[C@@H]1CCCN1C(=O)[C@@H](CCCCN)NC(=O)CN(CCN(CCN(CC(=O)O)CC(=O)O)CC(=O)O)CC(=O)O)C1CCN(C(=N)N)CC1)C(=O)N[C@@H](CC1CC1)C(=O)O) [DTPA-DLys-Pro-Gly(PipAm)-Arg-Pro-Tyr-tBuGly-Cpa-OH]	6.54
{DTPA}-[dK]P[Gly(1-amidinopiperidin-4-yl)]R[AzeCA]Y[Tle]L-OH [DTPA-DLys-Pro-Gly(PipAm)-Arg-AzeCA-Tyr-tBuGly-Leu-OH]	6.13
{DTPA}-[dK]P[Gly(1-amidinopiperidin-4-yl)][PipGly]PY[Tle]L-OH [DTPA-DLys-Pro-Gly(PipAm)-PipGly-Pro-Tyr-tBuGly-Leu-OH]	6.85
{DTPA}-[dK]P[Gly(1-amidinopiperidin-4-yl)]RP[mTyr][Tle]L-OH [DTPA-DLys-Pro-Gly(PipAm)-Arg-Pro-mTyr-tBuGly-Leu-OH]	6.52
{DTPA}-[trans‑Cha(4-CH2NH2)]P[Gly(1-amidinopiperidin-4-yl)]RPY[Tle]L-OH (SMILES CC(C)C[C@H](NC(=O)[C@@H](NC(=O)[C@H](Cc1ccc(O)cc1)NC(=O)[C@@H]1CCCN1C(=O)[C@H](CCCNC(=N)N)NC(=O)[C@@H](NC(=O)[C@@H]1CCCN1C(=O)[C@H](C[C@H]1CC[C@H](CN)CC1)NC(=O)CN(CCN(CCN(CC(=O)O)CC(=O)O)CC(=O)O)CC(=O)O)C1CCN(C(=N)N)CC1)C(C)(C)C)C(=O)O) [DTPA-trans-Cha(4-CH2NH2)-Pro-Gly(PipAm)-Arg-Pro-Tyr-tBuGly-Leu-OH]	8.30

A: {DTPA}-[PipGly]P[Gly(1-amidinopiperidin-4-yl)]RPY[Tle]L-OH [DTPA-PipGly-Pro-Gly(PipAm)-Arg-Pro-Tyr-tBuGly-Leu-OH]
B: {DTPA}-[dK]P[Gly(1-amidinopiperidin-4-yl)]RP[Dmt][Tle]L-OH [DTPA-DLys-Pro-Gly(PipAm)-Arg-Pro-(2,6-diMe)Tyr-tBuGly-Leu-OH]
Of A and B , which shows the smaller pKd value? Return value: the label identifying the chosen record. B
